- run_description: Stability in human hepatocytes
- Type: in vitro ADME
- details: t1/2, Human Hepatocytes, Diastereoisomer B
Measured half-life at 5 µM accompanies every entry in the list below.

Below, each entry is followed by its recorded half-life at 5 µM result.
| compound | half-life at 5 µM |
| --- | --- |
| COC(=O)CCNC(=O)[C@@H]1OP(=O)(OCOC(=O)OC(C)C)OCC1(C)C (stereo partly shown) [Compound No. 69] | < 15 min |
| COC(=O)CCNC(=O)[C@@H]1OP(=O)(OCOC(=O)C(C)(C)C)OCC1(C)C (stereo partly shown) [Compound No. 65] | < 15 min |
| COC(=O)CCNC(=O)[C@@H]1OP(=O)(N[C@H](C(=O)OC(C)(C)C)C2CCCCC2)OCC1(C)C (stereo partly shown) [compound 14] | < 15 min |

Prompt line: Query (compound): COC(=O)CCNC(=O)[C@H](O)C(C)(C)COP1(=O)OCC(C)(C)[C@H](C(=O)NCCC(=O)OC)O1 (stereo partly shown) [compound 59] ; field requested: half-life at 5 µM
Response line: 92.4 min

----------
Measured half-life at 5 µM accompanies every entry in the list below.
- run_description: Stability in mouse hepatocytes
- Format: in vitro ADME
- details: t1/2, Mouse Hepatocytes, Diastereoisomer B

| molecule | half-life at 5 µM |
| --- | --- |
| COC(=O)[C@H](C)NP1(=O)OCC(C)(C)[C@H](C(=O)NCCC(=O)OCc2ccncc2)O1 (stereo partly shown) | < 15 min |
| COC(=O)CCNC(=O)[C@@H]1OP(=O)(OCCSC(=O)C(C)(C)C)OCC1(C)C (stereo partly shown) | < 15 min |
| COC(=O)CCNC(=O)[C@@H]1OP(=O)(OCOC(=O)c2ccccc2)OCC1(C)C (stereo partly shown) | < 15 min |
| CCc1cc(C(=O)OCOP2(=O)OCC(C)(C)[C@H](C(=O)NCCC(=O)OC)O2)n(C)n1 (stereo partly shown) | < 15 min |

Prompt line: Query (molecule): COC(=O)CCNC(=O)[C@@H]1OP(=O)(N[C@@H](C)C(=O)OCc2ccccc2)OCC1(C)C (stereo partly shown) ; field requested: half-life at 5 µM
Response line: < 15 min

Prompt line: Query (molecule): CCc1cc(C(=O)OCO[P@]2(=O)OCC(C)(C)[C@H](C(=O)NCCC(=O)OC)O2)n(C)n1 (single isomer, unassigned) ; field requested: half-life at 5 µM
Response line: < 15 min

Prompt line: Query (molecule): COC(=O)CCNC(=O)[C@@H]1OP(=O)(N[C@@H](Cc2cncs2)C(=O)OCc2ccccc2)OCC1(C)C (stereo partly shown) ; field requested: half-life at 5 µM
Response line: < 15 min

----------
- run_description: Stability in mouse hepatocytes
- Format: in vitro ADME
- details: t1/2, Mouse Hepatocytes, Diastereoisomer B
assay_metric: half-life at 5 µM

Below, each entry is followed by its recorded half-life at 5 µM result.
| compound | half-life at 5 µM |
| --- | --- |
| COC(=O)CCNC(=O)[C@@H]1OP(=O)(OC(C)OC(=O)c2ccccc2)OCC1(C)C (stereo partly shown) | < 15 min |
| COC(=O)CCNC(=O)[C@@H]1OP(=O)(N[C@H](C)C(=O)OCCc2ccccc2)OCC1(C)C (stereo partly shown) | < 15 min |
| COC(=O)CCNC(=O)[C@@H]1OP(=O)(OCCCOCc2ccccc2)OCC1(C)C (stereo partly shown) | < 15 min |
| COC(=O)CCNC(=O)[C@@H]1OP(=O)(N[C@@H](Cc2ccc(OC(C)(C)C)cc2)C(=O)OC(C)(C)C)OCC1(C)C (stereo partly shown) | < 15 min |
| COC(=O)CCNC(=O)[C@H](O)C(C)(C)COP1(=O)OCC(C)(C)[C@H](C(=O)NCCC(=O)OC)O1 (stereo partly shown) | < 15 min |

Prompt line: Query (compound): COC(=O)CCNC(=O)[C@@H]1OP(=O)(OCOC(=O)OC(C)C)OCC1(C)C (stereo partly shown) ; field requested: half-life at 5 µM
Response line: < 15 min

Prompt line: Query (compound): COC(=O)CCNC(=O)[C@@H]1OP(=O)(N[C@H](C(=O)OC(C)(C)C)C2CCCCC2)OCC1(C)C (stereo partly shown) ; field requested: half-life at 5 µM
Response line: < 15 min
